Consider the following molecules; for each one, report its IC50.
- System: 991263-137-R1-J2-PDC complex spheroid viability
- assay-procedure: Anticancer human tumor 991263-137-R1-J2-PDC patient-derived colon adenocarcinoma cell line growth inhibition [POLQ]
- protocol-conditions: curve of first compound; second compound 1 µM
- Procedure: Multicellular complex tumor spheroid response to Polymerase (POL) inhibitors (novobiocin, ART-558, RP6685) in combination with a variety of drugs and investigational agents in selected tumor cell lines The POL inhibitors (novobiocin, ART-558, and RP6685) were evaluated both individually and in combination with standard of care and investigational anticancer small molecules within a complex spheroid model of solid tumors. . […]

# count of solved cases: 4
molecule	target-desc	IC50
Cn1ncnc1[C@H]1c2n[nH]c(=O)c3cc(F)cc(c23)N[C@@H]1c1ccc(F)cc1 + COC1C(OC(N)=O)C(O)C(Oc2ccc3c(O)c(NC(=O)c4ccc(O)c(CC=C(C)C)c4)c(=O)oc3c2C)OC1(C)C	991263-137-R1-J2-PDC complex spheroid viability	> 0.1 µM
CCc1cc2c(N3CCc4c(cc(Cn5ccnc5)cc4-c4cn(C)nc4C(F)(F)F)C3=O)ccnc2c(OC)n1 + Nc1ccc(C#CCN(C(=O)Cc2ncc(C(F)(F)F)cc2C(F)(F)F)c2ccc(F)cc2)nn1	991263-137-R1-J2-PDC complex spheroid viability	> 10 µM
CCc1cc2c(N3CCc4c(cc(Cn5ccnc5)cc4-c4cn(C)nc4C(F)(F)F)C3=O)cc(C)nc2c(OC)n1 + COC1C(OC(N)=O)C(O)C(Oc2ccc3c(O)c(NC(=O)c4ccc(O)c(CC=C(C)C)c4)c(=O)oc3c2C)OC1(C)C	991263-137-R1-J2-PDC complex spheroid viability	> 10 µM
CC(C)n1c(=O)n(C)c2cnc3cc(F)c(-c4ccc(OCCCN5CCCCC5)nc4)cc3c21 + Nc1ccc(C#CCN(C(=O)Cc2ncc(C(F)(F)F)cc2C(F)(F)F)c2ccc(F)cc2)nn1	991263-137-R1-J2-PDC complex spheroid viability	> 10 µM

Continue with the molecule presented below.
Lookup: Requested read-out IC50, target or system 991263-137-R1-J2-PDC complex spheroid viability, entry Cn1ncnc1[C@H]1c2n[nH]c(=O)c3cc(F)cc(c23)N[C@@H]1c1ccc(F)cc1 + Cc1cccc(N(C)C(=O)C2C(O)CCN2c2nc(C)cc(C(F)(F)F)c2C#N)c1
Found: > 0.1 µM

----------
- Tested on: 991263-137-R1-J2-PDC complex spheroid viability
- assay-procedure: Anticancer human tumor 991263-137-R1-J2-PDC cell line growth inhibition [POLQ];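 also: spheroids exposed to compounds for 7 days before readout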
- protocol-conditions: curve of first compound; second compound 0.1 µM
endpoint-name: IC50

molecule	target-desc	result
CC[C@@]1(O)C(=O)OCc2c1cc1n(c2=O)Cc2cc3c(CN(C)C)c(O)ccc3nc2-1 + COC1C(OC(N)=O)C(O)C(Oc2ccc3c(O)c(NC(=O)c4ccc(O)c(CC=C(C)C)c4)c(=O)oc3c2C)OC1(C)C	991263-137-R1-J2-PDC complex spheroid viability	> 0.1 µM

Kindly give each listed record's IC50.
1. CNCc1ccc(-c2[nH]c3cc(F)cc4c3c2CCNC4=O)cc1 + COC1C(OC(N)=O)C(O)C(Oc2ccc3c(O)c(NC(=O)c4ccc(O)c(CC=C(C)C)c4)c(=O)oc3c2C)OC1(C)C
2. C=CC(=O)N1CCN(c2nc(=O)n(-c3c(C)ccnc3C(C)C)c3nc(-c4c(O)cccc4F)c(F)cc23)C(C)C1 (stereo unspecified) + COC1C(OC(N)=O)C(O)C(Oc2ccc3c(O)c(NC(=O)c4ccc(O)c(CC=C(C)C)c4)c(=O)oc3c2C)OC1(C)C
3. C=CCn1c(=O)c2cnc(Nc3ccc(N4CCN(C)CC4)cc3)nc2n1-c1cccc(C(C)(C)O)n1 + Cc1cccc(N(C)C(=O)C2C(O)CCN2c2nc(C)cc(C(F)(F)F)c2C#N)c1

Found:
> 10 µM
> 10 µM
> 1 µM

Kindly give each listed record's IC50.
1. O=c1[nH]cc(F)c(=O)[nH]1 + Nc1ccc(C#CCN(C(=O)Cc2ncc(C(F)(F)F)cc2C(F)(F)F)c2ccc(F)cc2)nn1
2. O=C(c1cc(Cc2n[nH]c(=O)c3ccccc23)ccc1F)N1CCN(C(=O)C2CC2)CC1 + Nc1ccc(C#CCN(C(=O)Cc2ncc(C(F)(F)F)cc2C(F)(F)F)c2ccc(F)cc2)nn1

Found:
> 10 µM
> 10 µM

Sourced from PubChem BioAssay AID1963828
